Data origin: patent US11319321B2

Reported IC50 values for a set of compounds
- Assay target: Human recombinant PDE2A (hPDE2A) (Homo sapiens, UniProt O00408)
- Construct: made in house; host or cells: Sf9 insect cells (baculovirus)
- Sequence (O00408 whole entry): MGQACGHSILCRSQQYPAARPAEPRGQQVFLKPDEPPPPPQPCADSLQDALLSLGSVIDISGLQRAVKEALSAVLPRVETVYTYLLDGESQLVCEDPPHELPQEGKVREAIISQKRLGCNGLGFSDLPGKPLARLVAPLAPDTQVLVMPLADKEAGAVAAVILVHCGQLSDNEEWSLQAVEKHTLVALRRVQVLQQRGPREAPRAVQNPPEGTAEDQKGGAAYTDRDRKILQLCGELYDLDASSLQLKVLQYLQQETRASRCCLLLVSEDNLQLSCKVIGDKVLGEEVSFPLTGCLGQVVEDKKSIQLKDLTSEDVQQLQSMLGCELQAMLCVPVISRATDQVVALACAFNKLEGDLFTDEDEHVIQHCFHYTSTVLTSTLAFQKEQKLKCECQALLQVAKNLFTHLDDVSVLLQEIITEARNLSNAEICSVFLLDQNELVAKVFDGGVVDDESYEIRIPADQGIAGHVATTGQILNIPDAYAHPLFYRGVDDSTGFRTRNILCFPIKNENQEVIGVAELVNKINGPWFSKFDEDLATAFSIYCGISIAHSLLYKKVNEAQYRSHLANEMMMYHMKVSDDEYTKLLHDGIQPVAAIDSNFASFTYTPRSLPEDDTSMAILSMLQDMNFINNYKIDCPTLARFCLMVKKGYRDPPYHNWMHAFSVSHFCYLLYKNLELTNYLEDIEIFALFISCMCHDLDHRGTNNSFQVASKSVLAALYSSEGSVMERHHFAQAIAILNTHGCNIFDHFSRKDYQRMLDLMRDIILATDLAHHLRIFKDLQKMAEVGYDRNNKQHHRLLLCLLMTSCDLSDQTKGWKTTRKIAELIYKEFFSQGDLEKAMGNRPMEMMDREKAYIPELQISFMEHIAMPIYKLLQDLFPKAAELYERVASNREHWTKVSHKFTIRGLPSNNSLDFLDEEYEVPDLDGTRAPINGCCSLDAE
- Assay remarks: In vitro assay PDE2A (SPA, 3H-cGMP)
- Assay type: biochemical
- Condition parameters: hPDE2A pIC50, 10 μM cGMP substrate

Compound: C[C@@H]1CCN(Cc2cn(C)c3ccccc23)C[C@H]1c1cc(C(F)F)nc2ncnn12.Cl [Compound 35]
Result units: nM
IC50: 47.9
--
Compound: COc1ccc(CN2CCC[C@](C)(c3cc(C(F)F)nc4ncnn34)C2)c(OC)c1.Cl (stereo in doubt) [Compound 53]
Result units: nM
IC50: 6920
--
Compound: COc1ccc(CN2CC[C@H](C)[C@@H](c3cc(C(F)F)nc4ncnn34)C2)c(OC)c1.Cl [Compound 46]
Result units: nM
IC50: 7240
--
Compound: C[C@@H]1CCN(Cc2cc3ccccc3cn2)C[C@H]1c1cc(C(F)F)nc2ncnn12 [Compound 8]
Result units: nM
IC50: 8.51
--
Compound: Cc1cc(C(C)N2CC[C@@H](C)[C@H](c3cc(C(F)F)nc4ncnn34)C2)cc(C)n1 (single isomer, unassigned) [Compound 1b]
Result units: nM
IC50: 11.7
--
Compound: Cc1cc(C(C)N2CC[C@@H](C)[C@H](c3cc(C(F)F)nc4ncnn34)C2)cc(C)n1 (mixture of isomers) [Compound 1]
Result units: nM
IC50: 20.9
--
Compound: C[C@@H]1CCN(Cc2cccc(C#N)n2)C[C@H]1c1cc(C(F)F)nc2ncnn12 [Compound 25]
Result units: nM
IC50: 1020
--
Compound: Cc1csc(CN2CC[C@@H](C)[C@H](c3cc(C(F)F)nc4ncnn34)C2)c1.Cl [Compound 43]
Result units: nM
IC50: 347
--
Compound: C[C@H]1CCN(Cc2cc3ccccc3o2)C[C@@H]1c1cc(C(F)F)nc2ncnn12.Cl [Compound 55]
Result units: nM
IC50: 2240
--
Compound: C[C@@H]1CCN(Cc2nn(C)c3ccccc23)C[C@H]1c1cc(C(F)F)nc2ncnn12 [Compound 48]
Result units: nM
IC50: 977
--
Compound: C[C@@H]1CCN(Cc2cc3ccccc3o2)C[C@H]1c1cc(C(F)F)nc2ncnn12.Cl [Compound 38]
Result units: nM
IC50: 162

###

- Assay target: Human recombinant PDE2A (hPDE2A) (Homo sapiens)
- Construct: made in house; host or cells: Sf9 insect cells (baculovirus)
- Assay remarks: In vitro assay PDE2A (SPA, 3H-cGMP)
- Assay type: biochemical
- Method: Human recombinant PDE2A (hPDE2A) was expressed in Sf9 cells using a recombinant rPDE10A baculovirus construct. Cells were harvested after 48 h of infection and the hPDE2A protein was purified by metal chelate chromatography on Ni-sepharose 6FF. […] After sedimentation of the beads during 30 minutes the radioactivity was measured in a Perkin Elmer Topcount scintillation counter and results were expressed as cpm. […]
Reported IC50 values for a set of compounds

Compound: C[C@@H]1CCN([C@H](C)c2ccc3ncsc3c2)C[C@H]1c1cc(C(F)F)nc2ncnn12 (single isomer, unassigned)
IC50: 0.0447 µM

Compound: C[C@@H]1CCN(Cc2ccc(C#N)cc2)C[C@H]1c1cc(C(F)F)nc2ncnn12
IC50: 0.468 µM

Compound: C[C@@H]1CCN(Cc2ccc(F)c(C(F)(F)F)c2)C[C@H]1c1cc(C(F)F)nc2ncnn12
IC50: 0.49 µM

Compound: C[C@@H]1CCN([C@@H](C)c2ccc(C(F)(F)F)cc2)C[C@H]1c1cc(C(F)F)nc2ncnn12 (relative stereo)
IC50: 0.178 µM

Compound: Cc1cc(CN2CC[C@@H](C)[C@H](c3cc(C(F)F)nc4ncnn34)C2)cc(Cl)n1.Cl
IC50: 0.0245 µM

Compound: Cl.FC(F)Oc1cccc(CN2[C@H]3CC[C@H](c4cc(C(F)F)nc5ncnn45)[C@@H]2CC3)c1
IC50: 0.525 µM

###

Reported Emax values for a set of compounds
- Assay target: Human recombinant PDE2A (hPDE2A) (Homo sapiens)
- Construct: made in house; host or cells: Sf9 insect cells (baculovirus)
- Assay remarks: In vitro assay PDE2A (SPA, 3H-cGMP)
- Assay type: biochemical
- Condition parameters: 10 μM cGMP substrate
Readout: Emax (%)

Compound: COc1ccc(CN2CCC[C@](C)(c3cc(C(F)F)nc4ncnn34)C2)c(OC)c1.Cl (stereo in doubt) [Compound 53]
Readout: Emax
Meas value: 14
//
Compound: C[C@@H]1CCN(Cc2cccc(OC(F)(F)F)c2)C[C@H]1c1cc(C(F)F)nc2ncnn12 [Compound 24]
Readout: Emax
Meas value: 96
//
Compound: FC(F)c1cc(C2CCCN(Cc3cc4ccccc4o3)C2)n2ncnc2n1 (stereo not shown) [Compound 37]
Readout: Emax
Meas value: 81
//
Compound: C[C@@H]1CCN(Cc2ccc(Cl)c(Cl)c2)C[C@H]1c1cc(C(F)F)nc2ncnn12 [Compound 14]
Readout: Emax
Meas value: 102

###

- Assay target: Human recombinant PDE2A (hPDE2A) (Homo sapiens)
- Construct: made in house; host or cells: Sf9 insect cells (baculovirus)
- Assay remarks: In vitro assay PDE2A (SPA, 3H-cGMP)
- Format: biochemical
- Condition parameters: 10 μM cGMP substrate

Compound: Cc1cc([C@H](C)N2CC[C@@H](C)[C@H](c3cc(C(F)F)nc4ncnn34)C2)cc(C2CC2)n1 (relative stereo)
Assay target: Human recombinant PDE2A (hPDE2A) (Homo sapiens)
Emax: 99%
//
Compound: Cc1cc([C@@H](C)N2CC[C@@H](C)[C@H](c3cc(C(F)F)nc4ncnn34)C2)cc(C2CC2)n1 (relative stereo)
Assay target: Human recombinant PDE2A (hPDE2A) (Homo sapiens)
Emax: 100%
//
Compound: C[C@@H]1CCN(CC2CCOCC2)C[C@H]1c1cc(C(F)F)nc2ncnn12.Cl
Assay target: Human recombinant PDE2A (hPDE2A) (Homo sapiens)
Emax: 27%
//
Compound: C[C@H]1CCN(CC2CCOCC2)C[C@@H]1c1cc(C(F)F)nc2ncnn12.Cl
Assay target: Human recombinant PDE2A (hPDE2A) (Homo sapiens)
Emax: 20%
//
Compound: C[C@@H]1CCN(Cc2ccc(C#N)cc2)C[C@H]1c1cc(C(F)F)nc2ncnn12
Assay target: Human recombinant PDE2A (hPDE2A) (Homo sapiens)
Emax: 97%
//
Compound: Cc1cc(CN2CC[C@@H](C)[C@H](c3cc(C(F)F)nc4ncnn34)C2)cc(C)n1.Cl
Assay target: Human recombinant PDE2A (hPDE2A) (Homo sapiens)
Emax: 96%
//
Compound: Cl.FC(F)Oc1cccc(CN2[C@H]3CC[C@H](c4cc(C(F)F)nc5ncnn45)[C@@H]2CC3)c1
Assay target: Human recombinant PDE2A (hPDE2A) (Homo sapiens)
Emax: 97%
//
Compound: C[C@@H]1CCN(Cc2cn(C)c3ccccc23)C[C@H]1c1cc(C(F)F)nc2ncnn12.Cl
Assay target: Human recombinant PDE2A (hPDE2A) (Homo sapiens)
Emax: 102%
//
Compound: C[C@@H]1CCN(Cc2cc3ccccc3o2)C[C@H]1c1cc(C(F)F)nc2ncnn12.Cl
Assay target: Human recombinant PDE2A (hPDE2A) (Homo sapiens)
Emax: 88%
//
Compound: C[C@@H]1CCN(Cc2ccc(OC(F)(F)F)cc2)C[C@H]1c1cc(C(F)F)nc2ncnn12
Assay target: Human recombinant PDE2A (hPDE2A) (Homo sapiens)
Emax: 97%
//
Compound: Cc1csc(CN2CC[C@@H](C)[C@H](c3cc(C(F)F)nc4ncnn34)C2)c1.Cl
Assay target: Human recombinant PDE2A (hPDE2A) (Homo sapiens)
Emax: 77%
//
Compound: C[C@@H]1CCN(Cc2ccccc2)C[C@H]1c1cc(C(F)F)nc2ncnn12
Assay target: Human recombinant PDE2A (hPDE2A) (Homo sapiens)
Emax: 97%
//
Compound: C[C@@H]1CCN(Cc2ccc(F)c(F)c2)C[C@H]1c1cc(C(F)F)nc2ncnn12.Cl
Assay target: Human recombinant PDE2A (hPDE2A) (Homo sapiens)
Emax: 42%
//
Compound: Cc1cc(CN2CC[C@H](C)[C@@H](c3cc(C(F)F)nc4ncnn34)C2)cc(Cl)n1.Cl
Assay target: Human recombinant PDE2A (hPDE2A) (Homo sapiens)
Emax: 19%
//
Compound: C[C@@H]1CCN(Cc2ccc(F)c(C(F)(F)F)c2)C[C@H]1c1cc(C(F)F)nc2ncnn12
Assay target: Human recombinant PDE2A (hPDE2A) (Homo sapiens)
Emax: 99%
//
Compound: Cc1cc(CN2CCC(C)C(F)(c3cc(C(F)F)nc4ncnn34)C2)cc(C)n1 (stereo not drawn)
Assay target: Human recombinant PDE2A (hPDE2A) (Homo sapiens)
Emax: 91%
//
Compound: COc1ccc(CN2CC[C@@H](C)[C@@H](c3cc(C(F)F)nc4ncnn34)C2)c(OC)c1
Assay target: Human recombinant PDE2A (hPDE2A) (Homo sapiens)
Emax: 25%
//
Compound: Cc1cc(CN2CC[C@@H](C)[C@H](c3cc(C(F)F)nc4ncnn34)C2)cc(C2CC2)n1
Assay target: Human recombinant PDE2A (hPDE2A) (Homo sapiens)
Emax: 100%
//
Compound: Cc1cc(CN2CC[C@@H](C)[C@H](c3cc(C(F)F)nc4ncnn34)C2)cc(C)c1Cl.Cl
Assay target: Human recombinant PDE2A (hPDE2A) (Homo sapiens)
Emax: 100%
//
Compound: C[C@@H]1CCN(Cc2ccc(F)c(F)c2)C[C@@H]1c1cc(C(F)F)nc2ncnn12
Assay target: Human recombinant PDE2A (hPDE2A) (Homo sapiens)
Emax: 22%
//
Compound: C[C@H]1CCN(Cc2ccc(F)c(F)c2)C[C@@H]1c1cc(C(F)F)nc2ncnn12.Cl
Assay target: Human recombinant PDE2A (hPDE2A) (Homo sapiens)
Emax: 33%
//
Compound: Cc1cc([C@@H](C)N2CC[C@@H](C)[C@H](c3cc(C(F)F)nc4ncnn34)C2)cc(Cl)n1 (single isomer, unassigned)
Assay target: Human recombinant PDE2A (hPDE2A) (Homo sapiens)
Emax: 100%
//
Compound: Cc1nn(C)cc1CN1CC[C@@H](C)[C@H](c2cc(C(F)F)nc3ncnn23)C1.Cl
Assay target: Human recombinant PDE2A (hPDE2A) (Homo sapiens)
Emax: 31%
//
Compound: Cc1cc(CN2CC[C@H](C)[C@@H](c3cc(C(F)F)nc4ncnn34)C2)ccn1.Cl
Assay target: Human recombinant PDE2A (hPDE2A) (Homo sapiens)
Emax: 4%
//
Compound: C[C@@H]1CCN(Cc2ccc3nccn3c2)C[C@H]1c1cc(C(F)F)nc2ncnn12
Assay target: Human recombinant PDE2A (hPDE2A) (Homo sapiens)
Emax: 91%
//
Compound: C[C@@H]1CCN([C@@H](C)c2ccc(C(F)(F)F)cc2)C[C@H]1c1cc(C(F)F)nc2ncnn12 (relative stereo)
Assay target: Human recombinant PDE2A (hPDE2A) (Homo sapiens)
Emax: 99%
//
Compound: Cc1cc([C@H](C)N2CC[C@@H](C)[C@H](c3cc(C(F)F)nc4ncnn34)C2)cc(Cl)n1 (single isomer, unassigned)
Assay target: Human recombinant PDE2A (hPDE2A) (Homo sapiens)
Emax: 99%
//
Compound: C[C@@H]1CCN(Cc2cccc(OC(F)F)c2)C[C@H]1c1cc(C(F)F)nc2ncnn12
Assay target: Human recombinant PDE2A (hPDE2A) (Homo sapiens)
Emax: 95%
//
Compound: Cl.FC(F)c1cc([C@H]2CC[C@H]3CC[C@@H]2N3Cc2ccc(Cl)c(Cl)c2)n2ncnc2n1
Assay target: Human recombinant PDE2A (hPDE2A) (Homo sapiens)
Emax: 100%
//
Compound: CC(C)c1ccc(CN2CC[C@@H](C)[C@H](c3cc(C(F)F)nc4ncnn34)C2)cc1
Assay target: Human recombinant PDE2A (hPDE2A) (Homo sapiens)
Emax: 98%
